Data provenance is patent US4724233A.

- Assay procedure: in vitro
- Assay conditions: rabbit, prk cells, ID50 Leu incorporation
Measured property: IC50

* Nc1ncnc2c1ncn2CCOCP(=O)(O)O | > 400 µg/mL

----------
Items are presented alongside their recorded MCC at 72 h.
- Assay procedure: in vitro
- Assay conditions: rabbit, prk cells
Measured property: MCC at 72 h

* Nc1ncnc2c1ncn2CC(O)COCP(=O)(O)O (racemic) [No. 2] | > 400 µg/mL
* Nc1ncnc2c1ncn2CCOCP(=O)(O)O [No. 6, 9-(2-phosphonylmethoxyethyl)adenine] | ≥ 200 µg/mL
* Nc1ncnc2c1ncn2C[C@H](O)CO [(S)-DHPA, 9-(S)-(2,3-dihydroxypropyl)adenine, reference compound] | > 400 µg/mL
* Nc1ncnc2c1ncn2C[C@H](O)COCP(=O)(O)O (racemic) [No. 3] | ≥ 200 µg/mL
* Nc1ncnc2c1ncn2C[C@@H](CO)OCP(=O)(O)O [No. 4] | ≥ 200 µg/mL

----------
- Assay procedure: in vitro
- Assay conditions: rabbit, prk cells, ID50 dUrd incorporation
Measured property: IC50 (µg/mL)

* Nc1ncnc2c1ncn2CCOCP(=O)(O)O | 114

----------
- Tested on: HSV-1 (strain) McIntyre
- Assay procedure: inhibition of cytopathic effect of HSV-1 strain McIntyre
- Type: cell-based, herpes simplex virus type 1
- Assay conditions: Human alphaherpesvirus 1; Table 4; HSV-1 McIntyre, PRK cells; read-out: MIC50
Measured property: EC50

- Nc1ncnc2c1ncn2C[C@@H](CO)OCP(=O)(O)O: 1 to 3 µg/mL
- O=c1[nH]c(=O)n([C@H]2C[C@H](O)[C@@H](CO)O2)cc1I [IDU, 5-iodo-2'-deoxyuridine, reference compound]: 0.2 µg/mL
- Nc1ncnc2c1ncn2CC(O)COCP(=O)(O)O (racemic): 10 to 15 µg/mL

----------
- Test system: Herpes simplex 2 (G)
- Assay procedure: inhibition of cytopathic effect of herpes simplex 2 (G)
- Format: cell-based, herpes simplex virus type 2
- Assay conditions: Human alphaherpesvirus 2, PRK, Table 4; HSV-2 G, PRK cells; read-out: MIC50
Measured property: EC50

* Nc1ncnc2c1ncn2C[C@H](O)COCP(=O)(O)O (racemic) [No. 3] | 30 to 150 µg/mL
* Nc1ncnc2c1ncn2C[C@@H](CO)OCP(=O)(O)O [No. 4] | 1 to 3 µg/mL
* Nc1ncnc2c1ncn2CC(O)COCP(=O)(O)O (racemic) [No. 2] | 10 to 15 µg/mL

----------
- Test system: HSV-2 (strain) 196
- Assay procedure: inhibition of cytopathic effect of HSV-2 strain 196
- Type: cell-based, herpes simplex virus type 2
- Assay conditions: Human alphaherpesvirus 2; Table 4; HSV-2 196, PRK cells; read-out: MIC50
Measured property: EC50

* Nc1ncnc2c1ncn2CC(O)COCP(=O)(O)O (racemic) [No. 2] | 10 to 15 µg/mL
* Nc1ncnc2c1ncn2C[C@@H](CO)OCP(=O)(O)O [No. 4] | 1 to 3 µg/mL
* Nc1ncnc2c1ncn2C[C@H](O)COCP(=O)(O)O (racemic) [No. 3] | 70 to 150 µg/mL
